Entry source: patent US10280170B2

Target: Ba/F3 cells containing Ros1 wild-type protein (Homo sapiens, UniProt P08922, cells depend on it, form not given)
Construct: The background only speaks of 'a number of different unrelated proteins' and names SLC34A2-ROS1 for HCC78 cells
Sequence (P08922 whole entry, stated change not applied): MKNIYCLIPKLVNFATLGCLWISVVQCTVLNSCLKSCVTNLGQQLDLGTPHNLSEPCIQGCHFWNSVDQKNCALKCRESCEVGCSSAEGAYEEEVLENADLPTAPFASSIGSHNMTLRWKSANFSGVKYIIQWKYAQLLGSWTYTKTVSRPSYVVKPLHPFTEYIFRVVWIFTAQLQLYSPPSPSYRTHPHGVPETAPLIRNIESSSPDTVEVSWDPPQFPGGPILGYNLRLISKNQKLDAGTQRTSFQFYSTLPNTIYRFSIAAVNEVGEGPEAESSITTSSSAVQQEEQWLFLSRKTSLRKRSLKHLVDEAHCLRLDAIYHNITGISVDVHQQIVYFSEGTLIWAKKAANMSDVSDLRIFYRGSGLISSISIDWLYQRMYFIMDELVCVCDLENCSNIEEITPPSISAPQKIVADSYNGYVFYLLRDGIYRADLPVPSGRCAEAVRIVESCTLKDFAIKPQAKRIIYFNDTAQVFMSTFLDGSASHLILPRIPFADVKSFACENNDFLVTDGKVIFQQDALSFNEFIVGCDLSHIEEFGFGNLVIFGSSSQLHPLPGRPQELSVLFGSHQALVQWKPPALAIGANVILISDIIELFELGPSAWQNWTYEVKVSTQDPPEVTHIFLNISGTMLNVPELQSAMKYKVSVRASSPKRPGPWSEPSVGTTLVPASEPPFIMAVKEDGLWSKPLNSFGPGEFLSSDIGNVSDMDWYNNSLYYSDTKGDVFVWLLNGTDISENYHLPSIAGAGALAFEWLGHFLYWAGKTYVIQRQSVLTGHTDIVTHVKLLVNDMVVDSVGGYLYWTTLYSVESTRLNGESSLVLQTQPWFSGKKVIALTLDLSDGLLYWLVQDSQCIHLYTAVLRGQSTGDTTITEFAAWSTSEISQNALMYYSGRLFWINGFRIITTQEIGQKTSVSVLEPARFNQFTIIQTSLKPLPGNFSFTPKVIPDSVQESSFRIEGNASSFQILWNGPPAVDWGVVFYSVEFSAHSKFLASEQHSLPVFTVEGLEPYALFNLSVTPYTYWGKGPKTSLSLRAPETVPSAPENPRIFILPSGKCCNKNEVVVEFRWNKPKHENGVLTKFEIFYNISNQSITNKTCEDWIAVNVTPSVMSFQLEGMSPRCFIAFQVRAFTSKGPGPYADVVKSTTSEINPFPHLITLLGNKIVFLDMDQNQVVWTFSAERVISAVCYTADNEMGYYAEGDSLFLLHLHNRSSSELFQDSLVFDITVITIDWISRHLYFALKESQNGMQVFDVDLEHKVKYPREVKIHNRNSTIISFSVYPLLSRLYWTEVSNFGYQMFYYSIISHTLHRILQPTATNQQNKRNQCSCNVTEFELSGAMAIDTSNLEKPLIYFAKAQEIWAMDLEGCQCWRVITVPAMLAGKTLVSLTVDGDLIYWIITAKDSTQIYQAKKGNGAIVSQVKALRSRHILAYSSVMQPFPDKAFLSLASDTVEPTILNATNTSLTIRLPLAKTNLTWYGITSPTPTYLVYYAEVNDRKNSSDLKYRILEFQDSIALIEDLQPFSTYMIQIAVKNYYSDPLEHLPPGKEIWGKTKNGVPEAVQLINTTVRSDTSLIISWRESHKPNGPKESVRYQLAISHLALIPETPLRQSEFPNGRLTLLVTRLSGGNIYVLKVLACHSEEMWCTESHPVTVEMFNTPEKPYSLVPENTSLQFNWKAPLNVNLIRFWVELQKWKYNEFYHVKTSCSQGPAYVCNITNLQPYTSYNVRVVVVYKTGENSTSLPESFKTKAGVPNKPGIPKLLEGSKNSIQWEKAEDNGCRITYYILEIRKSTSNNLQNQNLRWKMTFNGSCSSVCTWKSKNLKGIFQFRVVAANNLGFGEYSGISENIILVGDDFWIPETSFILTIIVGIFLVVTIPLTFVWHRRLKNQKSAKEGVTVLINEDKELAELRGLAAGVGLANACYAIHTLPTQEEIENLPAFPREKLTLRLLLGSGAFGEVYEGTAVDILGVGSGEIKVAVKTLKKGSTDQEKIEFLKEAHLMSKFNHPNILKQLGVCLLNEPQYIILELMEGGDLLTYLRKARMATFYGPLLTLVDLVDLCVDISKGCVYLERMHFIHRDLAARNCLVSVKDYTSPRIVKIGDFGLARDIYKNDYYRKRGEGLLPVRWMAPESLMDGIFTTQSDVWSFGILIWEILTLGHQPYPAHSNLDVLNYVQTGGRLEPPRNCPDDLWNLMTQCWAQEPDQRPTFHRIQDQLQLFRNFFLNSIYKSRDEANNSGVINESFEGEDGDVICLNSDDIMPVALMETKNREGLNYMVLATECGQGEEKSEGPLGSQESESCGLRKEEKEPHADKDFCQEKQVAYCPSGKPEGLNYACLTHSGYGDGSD
Experiment Summary: Ba/F3-Ros1 cell proliferation assay, wild-type Ros1
Assay type: cell-based, murine
Experimental Conditions: without IL-3
The threshold is inclusive: BaF3-ROS1-IL3 pIC50 of exactly 6 counts as Satisfied; values below receive Not satisfied.

{"Compound": "CC(C)c1ccc(COc2ccc(-c3c(-c4ccncc4)nn4c3C(=O)NCC4)cc2F)cc1", "Group": "Satisfied"}
{"Compound": "COc1cc(-c2c(-c3ccncc3)nn3c2C(=O)N(C)CC3)ccc1OCc1ccc(C(C)C)cc1", "Group": "Satisfied"}
{"Compound": "COCCc1cc(COc2ccc(-c3c(-c4ccncc4)nn4c3C(=O)NCC4)cc2)ccc1C(C)C", "Group": "Satisfied"}
{"Compound": "CC(C)(CN)c1ccc(COc2ccc(-c3c(-c4ccncc4)nn4c3C(=O)NCC4)cc2)cc1", "Group": "Satisfied"}
{"Compound": "Fc1cc(OCc2ccc(C3CC3)cc2)ccc1-c1c(-c2ccncc2)nn2c1CNCC2", "Group": "Satisfied"}
{"Compound": "CC(C)c1ccc(COc2ccc(-c3c(-c4ccncc4)nn4c3CN(C(=O)CN(C)C)CC4)cc2)cc1", "Group": "Not satisfied"}
{"Compound": "CNC(=O)CN1CCn2nc(-c3ccncn3)c(-c3ccc(OCc4ccc(C(C)C)cc4)cc3)c2C1=O", "Group": "Satisfied"}
{"Compound": "CC1Cn2nc(-c3ccncc3)c(-c3ccc(OCc4ccc(C5CC5)cc4)cc3)c2C(=O)N1 (stereo not shown)", "Group": "Satisfied"}
{"Compound": "CC(C)Cc1ccc(COc2ccc(-c3c(-c4ccncc4)nn4c3C(=O)NCC4)cc2)cc1", "Group": "Satisfied"}
{"Compound": "COc1cc(-c2c(-c3ccncc3)nn3c2C(=O)NCC3)cc(OC)c1OCc1ccc(C(C)C)cc1", "Group": "Not satisfied"}
{"Compound": "COc1cc(-c2c(-c3ccncc3)nn3c2C(=O)NCC3)cnc1OCc1ccc(C(C)C)cc1", "Group": "Satisfied"}
{"Compound": "CC(C)c1ccc(COc2cc(F)c(-c3c(-c4ccncc4)nn4c3C(=O)NCC4)cn2)cc1", "Group": "Satisfied"}
{"Compound": "COC(=O)c1cccc(COc2ccc(-c3c(-c4ccncc4)nn4c3C(=O)NCC4)cc2)c1", "Group": "Satisfied"}
{"Compound": "O=C1c2c(-c3ccc(OCc4ccc(C5CC5)cc4)cc3)c(-c3ccncc3)nn2CCN1CCO", "Group": "Satisfied"}
{"Compound": "N#Cc1ncc(COc2ccc(-c3c(-c4ccncc4)nn4c3C(=O)NCC4)cc2)cc1Cl", "Group": "Not satisfied"}
{"Compound": "CC(C)c1ccc(C(CN)Oc2ccc(-c3c(-c4ccncc4)nn4c3C(=O)NCC4)cc2)cc1 (stereo not shown)", "Group": "Not satisfied"}

###

Target: Ros1 enzyme (Homo sapiens, UniProt P08922)
Construct: 0.5 μg/ml Ros1 enzyme
Experiment Summary: Ros1 enzymatic assay
Type: biochemical
Experimental Conditions: Ros1 enzymatic assay; read-out: ROS1 pIC50 (converted)
Quick reference: IC50 of the listed items.

{"Smiles": "O=C1c2c(-c3ccc(OCc4ccc(C5CC5)cc4F)cc3)c(-c3ccncc3)nn2CCN1CCO", "IC50": "63.1 nM"}
{"Smiles": "CC(C)c1ccc(COc2ccc(-c3c(-c4ccncc4)nn4c3C(=O)N(CCO)CC4)cc2F)cc1", "IC50": "12.6 nM"}
{"Smiles": "CC(C)c1ccc(COc2ccc(-c3c(-c4ccncc4)nn4c3C(=O)N(CCO)CC4)cc2)cc1", "IC50": "20 nM"}
{"Smiles": "COc1cc(COc2ccc(-c3c(-c4ccncc4)nn4c3C(=O)NCC4)cc2)ccc1C(C)C", "IC50": "126 nM"}
